Assign pEC50 to each entry below.
target: human M4 muscarinic acetylcholine receptor (Homo sapiens); construct: expressed in transfected cells; assay: human FLIPR-based M4 PAM assay (CHO-K1 cells with human M4 receptor and Gαqi5, calcium dye fluorescence); assay type: cell-based; settings: inflection point of 4 parameter logistic fit; acetylcholine added at 20% of maximum response; read-out: M4PAM IP
Give bare numbers, as −log10 of the molar value.

Compound | Measurement target | pEC50
CN1Cc2ccc(-c3nc(C#N)ccc3-c3cnn(CC4(C(F)(F)F)CC4)c3)cc2C1=O | human M4 muscarinic acetylcholine receptor (Homo sapiens) | 7.68
Cc1ccc(-c2cnn(CCC(C)C)c2F)c(-c2ccn3ccnc3c2)n1 | human M4 muscarinic acetylcholine receptor (Homo sapiens) | 7.10
CN1Cc2ccc(-c3nc(Cl)ccc3-c3cnn(CC4CCCCC4)c3)cc2C1=O | human M4 muscarinic acetylcholine receptor (Homo sapiens) | 7.50
CC(C)CCn1cc(-c2ccc(Cl)nc2-c2ccc3c(c2)C(=O)N(Cc2ccc(O)cc2)C3)cn1 | human M4 muscarinic acetylcholine receptor (Homo sapiens) | 7.64

Provide the reported pEC50 of each entry below, same order.
1. Cc1nc2cc(-c3ncccc3-c3cnn(CC(C)(C)C(C)(F)F)c3)ccc2n1C
2. CC(C)(Cn1cc(-c2ccc(C#N)nc2-c2ccn3ccnc3c2)cn1)C(F)F
3. Cc1cn2ccc(-c3nc(C#N)ccc3-c3cnn(CC4(F)CCC4)c3)cc2n1
4. CC1(Cn2cc(-c3ccc(C#N)nc3-c3ccn4ccnc4c3)cn2)CC1(F)F (centres unmarked)
5. Cc1ccc(-c2cnn(CC3(C)CCC(F)(F)CC3)c2)c(-c2ccc3c(c2)C(=O)N(C)C3)n1

1: 6.95; 2: 7.49; 3: 7.51; 4: 7.24; 5: 7.58

Provide the reported pEC50 of each entry below, same order.
1. CC(C)CCn1cc(-c2cc(Cl)cnc2-c2ccc3scnc3c2)cn1
2. Cc1nc2cc(-c3nc(C#N)ccc3-c3cnn(CC(C)(C)C(C)(F)F)c3)ccc2n1C

[6.69, 7.17]

----------
biological target: human M4 muscarinic acetylcholine receptor (Homo sapiens, UniProt P08173); construct: expressed in transfected cells; assay: human FLIPR-based M4 PAM assay (CHO-K1 cells with human M4 receptor and Gαqi5, calcium dye fluorescence); assay type: cell-based; details: inflection point of 4 parameter logistic fit; acetylcholine added at 20% of maximum response; read-out: M4PAM IP
Sequence (P08173 whole entry): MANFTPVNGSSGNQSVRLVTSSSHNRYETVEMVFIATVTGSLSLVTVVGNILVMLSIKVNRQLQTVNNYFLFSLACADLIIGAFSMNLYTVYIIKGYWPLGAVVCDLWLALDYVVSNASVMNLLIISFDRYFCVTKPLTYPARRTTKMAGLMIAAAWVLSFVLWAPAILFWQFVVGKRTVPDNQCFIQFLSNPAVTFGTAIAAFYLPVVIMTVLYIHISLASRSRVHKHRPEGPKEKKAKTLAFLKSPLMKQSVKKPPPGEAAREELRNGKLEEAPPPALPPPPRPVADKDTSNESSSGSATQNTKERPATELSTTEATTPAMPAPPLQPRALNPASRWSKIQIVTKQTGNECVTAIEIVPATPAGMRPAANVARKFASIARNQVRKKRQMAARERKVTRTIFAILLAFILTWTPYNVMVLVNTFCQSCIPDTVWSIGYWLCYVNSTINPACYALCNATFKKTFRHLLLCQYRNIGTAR
Assign pEC50 to each entry below.
Numbers only, as −log10 of the molar value.

Item smiles | pEC50
CC(C)CCn1cc(-c2ccc(Cl)nc2-c2ccc3c(c2)C(=O)N(Cc2ccccn2)C3)cn1 | 7.22
Cc1nc2cc(-c3ncc(F)cc3-c3cnn(CC4CC(F)(F)C4)c3)ccc2n1C | 6.79
Cc1ccc(-c2cnn(CC(C)(C)C(F)(F)F)c2)c(-c2ccn3ccnc3c2)n1 | 7.59

Continue with the next compound.
Per the record, `COCc1cn2ccc(-c3nc(C#N)ccc3-c3cnn(CC(C)(C)C)c3)cc2n1` has pEC50 of 7.35

----------
target: human M4 muscarinic acetylcholine receptor (Homo sapiens, UniProt P08173); construct: expressed in transfected cells; assay: human FLIPR-based M4 PAM assay (CHO-K1 cells with human M4 receptor and Gαqi5, calcium dye fluorescence); type: cell-based; conditions: inflection point of 4 parameter logistic fit; acetylcholine added at 20% of maximum response; read-out: M4PAM IP
Assign EC50 to each entry below.
Remember to follow the number with its unit.

Solved cases (5 shown):
Item smiles | EC50
N#Cc1ccc(-c2cnn(CC(F)(F)C(F)(F)C(F)(F)F)c2)c(-c2ccn3ccnc3c2)n1 | 89.9 nM
Cc1nc2cc(-c3nc(C#N)ccc3-c3cnn(CCC(F)(F)C(F)F)c3)ccc2n1C | 102 nM
Cc1cn2ccc(-c3nc(C#N)ccc3-c3cnn(CC(C)(C)F)c3)cc2n1 | 78.1 nM
Cc1ccc(-c2cnn(CCC(C)C)c2)c(-c2ccc3c(c2)CN(C(=O)OC(C)(C)C)C3)n1 | 76 nM
Cc1cn2ccc(-c3nc(C#N)ccc3-c3cnn(CCC(F)(F)C(F)(F)F)c3)cc2n1 | 96.9 nM

Provide the reported EC50 of each entry below, same order.
1. CC(C)(C)Cn1cc(-c2cc(F)cnc2-c2ccn3ccnc3c2)cn1
2. CCC(F)(F)Cn1cc(-c2ccc(C#N)nc2-c2ccn3ccnc3c2)cn1
3. COc1ccc(-c2cnn(CC(C)(C)C)c2)c(-c2ccn3cc(C)nc3c2)n1

1. 97.7 nM
2. 61.4 nM
3. 149 nM
